test: Volume of distribution in Rattus norvegicus Sprague-Dawley (rat) at 2 mg/kg, iv; type: ADME, organism-based; set-up: dose 2 mg/kg, route intravenous; settings: in vivo
Provide the reported Vd of each item.
Use L/kg as the unit, but write only the number.

Q: Identify the reported Vd for the following entry. `CCO[C@@H]1O[C@@H]2O[C@]3(C)CC[C@H]4[C@H](C)CC[C@@H]([C@H]1C)[C@@]24OO3`
Result: 3.6

Q: Query Vd for `CCO[C@H]1O[C@@H]2O[C@@]3(C)CC[C@H]4[C@H](C)CC[C@@H]([C@H]1C)[C@@]24OO3`
Result: 9.3

---

assay: Cmax in Rattus norvegicus Sprague-Dawley (rat) at 9 mg/kg, administered intramuscularly; type: ADME, organism-based; design: dose 9 mg/kg, route intramuscular; conditions: in vivo, im
Exercise: for every item that follows, state its recorded Cmax.
Numeric answer only, unit ng/mL assumed.

Q: Given `CCO[C@@H]1O[C@@H]2O[C@]3(C)CC[C@H]4[C@H](C)CC[C@@H]([C@H]1C)[C@@]24OO3` , respond with its Cmax.
Result: 52.3

Q: Report Cmax, nothing else, for this molecule: `CCO[C@H]1O[C@@H]2O[C@@]3(C)CC[C@H]4[C@H](C)CC[C@@H]([C@H]1C)[C@@]24OO3`
Result: 39.8
